Recorded values, source patent US10981905B2.

Target Desc: Nav1.6 (Homo sapiens (Human))
Sequence (Q9UQD0 whole entry): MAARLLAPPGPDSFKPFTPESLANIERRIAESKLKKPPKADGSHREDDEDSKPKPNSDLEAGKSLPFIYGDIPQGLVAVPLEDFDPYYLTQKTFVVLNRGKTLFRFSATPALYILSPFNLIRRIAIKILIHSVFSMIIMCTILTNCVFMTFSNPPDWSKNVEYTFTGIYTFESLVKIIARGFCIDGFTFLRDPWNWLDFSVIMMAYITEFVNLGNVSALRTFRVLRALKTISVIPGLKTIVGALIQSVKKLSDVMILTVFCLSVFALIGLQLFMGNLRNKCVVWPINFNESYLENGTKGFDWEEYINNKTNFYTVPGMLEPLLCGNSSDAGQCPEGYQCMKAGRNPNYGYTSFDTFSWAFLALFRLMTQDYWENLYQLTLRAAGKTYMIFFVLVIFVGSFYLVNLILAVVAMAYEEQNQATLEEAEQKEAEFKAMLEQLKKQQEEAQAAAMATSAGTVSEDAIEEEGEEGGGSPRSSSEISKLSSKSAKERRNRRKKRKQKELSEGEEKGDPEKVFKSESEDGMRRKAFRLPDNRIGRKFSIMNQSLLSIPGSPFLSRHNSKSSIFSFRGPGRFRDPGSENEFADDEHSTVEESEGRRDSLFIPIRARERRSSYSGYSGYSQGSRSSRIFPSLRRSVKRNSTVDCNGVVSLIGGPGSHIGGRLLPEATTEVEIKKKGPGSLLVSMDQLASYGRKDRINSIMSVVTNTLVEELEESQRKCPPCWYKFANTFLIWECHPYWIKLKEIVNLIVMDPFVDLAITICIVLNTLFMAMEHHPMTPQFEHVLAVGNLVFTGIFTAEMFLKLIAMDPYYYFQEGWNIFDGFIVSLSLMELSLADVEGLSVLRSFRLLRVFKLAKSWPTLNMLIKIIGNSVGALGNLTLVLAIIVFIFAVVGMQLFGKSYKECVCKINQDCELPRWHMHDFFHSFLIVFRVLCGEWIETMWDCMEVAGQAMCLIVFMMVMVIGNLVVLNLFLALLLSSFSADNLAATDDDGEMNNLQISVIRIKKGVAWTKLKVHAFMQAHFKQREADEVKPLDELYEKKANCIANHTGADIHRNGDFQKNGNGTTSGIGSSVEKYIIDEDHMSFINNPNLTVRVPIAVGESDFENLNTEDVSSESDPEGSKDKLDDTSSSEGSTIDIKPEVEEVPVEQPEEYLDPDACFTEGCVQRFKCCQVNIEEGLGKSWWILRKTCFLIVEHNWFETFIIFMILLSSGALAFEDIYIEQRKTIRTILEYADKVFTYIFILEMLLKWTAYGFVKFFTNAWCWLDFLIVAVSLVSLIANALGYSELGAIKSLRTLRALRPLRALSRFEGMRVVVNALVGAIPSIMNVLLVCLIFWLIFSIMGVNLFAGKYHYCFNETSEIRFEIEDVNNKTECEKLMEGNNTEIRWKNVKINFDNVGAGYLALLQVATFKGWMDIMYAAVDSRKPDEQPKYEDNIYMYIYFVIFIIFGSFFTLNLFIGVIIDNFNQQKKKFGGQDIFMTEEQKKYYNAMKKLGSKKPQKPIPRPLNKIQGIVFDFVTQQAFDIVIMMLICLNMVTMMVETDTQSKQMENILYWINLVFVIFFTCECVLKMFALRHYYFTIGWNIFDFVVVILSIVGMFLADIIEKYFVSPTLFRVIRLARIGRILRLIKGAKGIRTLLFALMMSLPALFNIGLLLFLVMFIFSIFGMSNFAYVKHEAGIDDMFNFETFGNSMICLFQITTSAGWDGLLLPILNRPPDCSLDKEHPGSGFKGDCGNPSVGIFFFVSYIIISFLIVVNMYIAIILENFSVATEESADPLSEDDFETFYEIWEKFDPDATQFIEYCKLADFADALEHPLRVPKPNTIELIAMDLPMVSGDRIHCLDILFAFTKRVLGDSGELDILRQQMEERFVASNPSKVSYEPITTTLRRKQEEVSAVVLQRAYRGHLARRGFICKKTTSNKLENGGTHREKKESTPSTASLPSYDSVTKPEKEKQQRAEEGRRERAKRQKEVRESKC
Method Summary: Electrophysiological Assay (EP, patch voltage clamp), Nav1.6
Format: cell-based
Measurement Conditions: HEK-293 cells stably expressing the channel
pIC50: −log10 of the molar value. Structures can show the parent of a compound that is named as a salt.
Endpoint: pIC50

Query string: # get_value(readout= pIC50, system= Nav1.6 (Homo sapiens (Human))) for Cc1nc(S(=O)(=O)Nc2cscn2)ccc1NCc1c(F)ccc(F)c1CN(C)C(C)(C)C [Example 21, trifluoroacetic acid salt]
Result string: 7.37

Query string: # get_value(readout= pIC50, system= Nav1.6 (Homo sapiens (Human))) for Cc1nc(S(=O)(=O)Nc2cscn2)c(F)cc1NCc1c(F)cccc1CN(C)C(C)(C)C [Example 48]
Result string: 7.77

Query string: # get_value(readout= pIC50, system= Nav1.6 (Homo sapiens (Human))) for Cc1nc(S(=O)(=O)Nc2ccsn2)ccc1NCc1c(F)cccc1CN(C)C(C)(C)C [Example 19, trifluoroacetic acid salt]
Result string: 7.42

Query string: # get_value(readout= pIC50, system= Nav1.6 (Homo sapiens (Human))) for Cc1nc(S(=O)(=O)Nc2cscn2)ccc1NCc1c(F)cccc1CN1CCC1 [Example 4]
Result string: 7.59

a. Cc1nc(S(=O)(=O)Nc2ccsn2)ccc1NCc1c(F)cccc1CN1CCC1 [Example 20, trifluoroacetic acid salt]
b. Cc1nc(S(=O)(=O)Nc2cscn2)ccc1NCc1c(F)cccc1CN(C)C(C)C [Example 29, trifluoroacetic acid salt]
c. Cc1nc(S(=O)(=O)Nc2cscn2)ccc1NCc1c(F)cccc1CN(C)C(C)(C)C [Example 6, formic acid salt]
Query string: List these items ordered by pIC50, big to small. Put the labels in the requested order and list them out.
Result string: a, b, c
(a: 7.64, b: 7.41, c: 7.16)

----------
Target Desc: Nav1.1 (Homo sapiens (Human), UniProt P35498)
Method Summary: Sodium Influx Assay (Flux), Nav1.1
Type: cell-based
Measurement Conditions: Trex HEK293 cells, ANG2 dye, inactivated state
pIC50: −log10 of the molar value. Counter-ions that a name gives are not always drawn.
Endpoint: pIC50

Some solved cases for reference:
Query string: # get_value(readout= pIC50, system= Nav1.1 (Homo sapiens (Human), UniProt P35498)) for Cc1cc(S(=O)(=O)Nc2cscn2)cnc1NCc1c(F)cccc1CN(C)C(C)(C)C [Example 13, formic acid salt]
Result string: 4.83

Query string: # get_value(readout= pIC50, system= Nav1.1 (Homo sapiens (Human), UniProt P35498)) for O=S(=O)(Nc1cscn1)c1ccc(NCc2c(F)cccc2CN2C3CCC2CC3)c(C(F)(F)F)n1 [Example 47, trifluoroacetic acid salt]
Result string: 4.87

Query string: # get_value(readout= pIC50, system= Nav1.1 (Homo sapiens (Human), UniProt P35498)) for Cc1nc(S(=O)(=O)Nc2cscn2)ccc1NCc1c(F)cccc1CN1CCCC1 [Example 30, trifluoroacetic acid salt]
Result string: 4.52

Query string: # get_value(readout= pIC50, system= Nav1.1 (Homo sapiens (Human), UniProt P35498)) for Cc1nc(S(=O)(=O)Nc2ccsn2)ccc1NCc1c(F)cccc1CN1CCC1 [Example 20, trifluoroacetic acid salt]
Result string: 4.52

Query string: # get_value(readout= pIC50, system= Nav1.1 (Homo sapiens (Human), UniProt P35498)) for CN(Cc1cccc(F)c1CNc1ncc(S(=O)(=O)Nc2cscn2)cc1Cl)C(C)(C)C [Example 11, formic acid salt]
Result string: 4.93

A. Cc1c(NCc2c(F)cccc2CN(C)C(C)C)cnc(S(=O)(=O)Nc2cccc(F)n2)c1F
B. Cc1nc(S(=O)(=O)Nc2cscn2)c(F)cc1NCc1c(F)ccc(F)c1Br [Example 36, trifluoroacetic acid salt]
Query string: Given A and given B , which shows the smaller recorded pIC50? API: response body contains the label of the selected item.
Result string: A
(A: 4.52, B: 6.61)

1. Cc1nc(S(=O)(=O)Nc2cscn2)ccc1NCc1c(F)cccc1CN1CCC1
2. O=S(=O)(Nc1cccc(F)n1)c1cnc(NCc2c(F)cccc2CN2CCCC2)c(Cl)c1 [Example 42, trifluoroacetic acid salt]
Query string: Given 1 and given 2 , which shows the smaller recorded pIC50? API: response body contains the label of the selected item.
Result string: 1
(1: 4.54, 2: 5.20)
